Kindly supply the reported Particle size d (v, 0.9) values for the records listed here.
ASSAY COMMENT: Particle size distribution by laser diffraction (Malvern apparatus)
Format: physicochemical
TEST CONDITIONS: volume diameter of 90% of the particles
Structures can show the parent of a compound that is named as a salt.
One number for each entry, in μm.

COMPOUND	RESULT UNITS	Particle size d (v, 0.9)
COc1ccc(C[C@@H](C)NC[C@H](O)c2ccc(O)c3[nH]c(=O)ccc23)cc1 [carmoterol hydrochloride batch 1]	μm	4.34

Count: 5. Required value per item: Particle size d (v, 0.9).
1. COc1ccc(C[C@@H](C)NC[C@H](O)c2ccc(O)c3[nH]c(=O)ccc23)cc1 [carmoterol hydrochloride batch 3]
2. COc1ccc(C[C@@H](C)NC[C@H](O)c2ccc(O)c3[nH]c(=O)ccc23)cc1 [carmoterol hydrochloride batch 2]
3. COc1ccc(C[C@@H](C)NC[C@H](O)c2ccc(O)c3[nH]c(=O)ccc23)cc1 [carmoterol hydrochloride batch 6]
4. COc1ccc(C[C@@H](C)NC[C@H](O)c2ccc(O)c3[nH]c(=O)ccc23)cc1 [carmoterol hydrochloride batch 5]
5. COc1ccc(C[C@@H](C)NC[C@H](O)c2ccc(O)c3[nH]c(=O)ccc23)cc1 [carmoterol hydrochloride batch 4]

[2.75, 4.31, 3.25, 2.75, 3.40]

* * *

Give measured SSA (Specific Surface Area) for each item. Keep answers brief.
ASSAY COMMENT: Specific Surface Area by BET nitrogen adsorption (Coulter SA3100)
Assay type: physicochemical
TEST CONDITIONS: mean of three determinations
Counter-ions that a name gives are not always drawn.
# include the unit after the value

COMPOUND	SSA (Specific Surface Area)
COc1ccc(C[C@@H](C)NC[C@H](O)c2ccc(O)c3[nH]c(=O)ccc23)cc1 [carmoterol hydrochloride batch 2]	9.68 m^2/g
COc1ccc(C[C@@H](C)NC[C@H](O)c2ccc(O)c3[nH]c(=O)ccc23)cc1 [carmoterol hydrochloride batch 6]	11.80 m^2/g
COc1ccc(C[C@@H](C)NC[C@H](O)c2ccc(O)c3[nH]c(=O)ccc23)cc1 [carmoterol hydrochloride batch 4]	10.74 m^2/g

// below: SSA (Specific Surface Area) requested for another compound
Looking for the measured SSA (Specific Surface Area) of COc1ccc(C[C@@H](C)NC[C@H](O)c2ccc(O)c3[nH]c(=O)ccc23)cc1 [carmoterol hydrochloride batch 5] , can you help?
11.91 m^2/g
